Below, each of the compounds is paired with its reported microsomal CLint value.
# ASSAY DETAILS: Metabolic stability of exemplified compounds (Example 4)
# Format: in vitro ADME
# CONDITION INFO: Mouse liver microsomes

Reference set (2 entries):
INSERT INTO results (compound, measurement_type, value_observed) VALUES
  ('N#Cc1nc(-c2cc(Cl)cc(Cl)c2Cl)oc1NCCCCCO [Compound 22]', 'microsomal CLint', '< 20 µL/min/mg'),
  ('COC/C=C/CNc1oc(-c2cc(Cl)cc(Cl)c2Cl)nc1C#N [Compound 45]', 'microsomal CLint', '100 to 200 µL/min/mg');

Kindly consider the entry below.
Value of microsomal CLint reported for the compound CC(C)OCCOCCNc1oc(-c2cc(Cl)cc(Cl)c2Cl)nc1C#N [Compound 49] is 20 to 100 µL/min/mg

----------
# ASSAY DETAILS: Aqueous solubility of exemplified compounds (Example 3)
# Assay type: physicochemical
# CONDITION INFO: aqueous solubility
MEASUREMENT TYPE: Sol

INSERT INTO results (sample_smiles, value_observed) VALUES
  ('COCCNc1oc(-c2cc(Cl)cc(Cl)c2Cl)nc1C#N', '+ (“+” < 10 μM)'),
  ('CC(C)OCCOCCNc1oc(-c2cc(Cl)cc(Cl)c2Cl)nc1C#N', '+ (“+” < 10 μM)'),
  ('N#Cc1nc(-c2cc(Cl)cc(Cl)c2Cl)oc1NC/C=C/COCc1ccccc1', '+ (“+” < 10 μM)');

----------
# ASSAY DETAILS: Solubility in formulation vehicles (Solutol HS-15/PEG400, Captisol)
# Assay type: physicochemical
# CONDITION INFO: 20% Captisol, aqueous with cosolvent or surfactant or cyclodextrin
Counter-ions that a name gives are not always drawn.
MEASUREMENT TYPE: solubility (mg/mL)
Give a bare numeral; the unit mg/mL is implied.

Value of solubility reported for the compound CN(C)CCCOC(=O)N(C)c1oc(-c2cc(Cl)cc(Cl)c2Cl)nc1C#N [Compound 52, hydrochloride] is 20

----------
# SYSTEM UNDER TEST: Human 12/15-LOX HEK (Homo sapiens (Human), UniProt P16050)
# Sequence (P16050 whole entry): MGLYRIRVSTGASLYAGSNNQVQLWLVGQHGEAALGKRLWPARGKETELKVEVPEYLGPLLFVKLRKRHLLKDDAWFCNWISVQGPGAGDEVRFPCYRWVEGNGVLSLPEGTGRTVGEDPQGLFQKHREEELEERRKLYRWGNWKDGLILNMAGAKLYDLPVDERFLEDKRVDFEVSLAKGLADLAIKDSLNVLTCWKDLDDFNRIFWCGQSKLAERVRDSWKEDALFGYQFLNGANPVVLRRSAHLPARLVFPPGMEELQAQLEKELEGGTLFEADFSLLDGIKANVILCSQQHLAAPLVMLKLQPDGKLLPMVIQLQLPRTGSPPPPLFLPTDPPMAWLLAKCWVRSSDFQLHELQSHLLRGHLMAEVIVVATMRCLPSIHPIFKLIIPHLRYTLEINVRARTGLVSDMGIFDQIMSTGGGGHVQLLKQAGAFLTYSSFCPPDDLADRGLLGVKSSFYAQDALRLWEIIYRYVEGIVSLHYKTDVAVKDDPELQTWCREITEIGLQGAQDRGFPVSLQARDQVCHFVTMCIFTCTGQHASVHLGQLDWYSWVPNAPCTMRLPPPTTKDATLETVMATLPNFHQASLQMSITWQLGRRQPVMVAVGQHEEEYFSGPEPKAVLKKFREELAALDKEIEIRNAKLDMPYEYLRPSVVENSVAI
# ASSAY DETAILS: Human 12/15-LOX HEK EC50
# Format: cell-based
MEASUREMENT TYPE: pEC50
When answering, recall that pEC50 equals minus log10 of the concentration in mol/L, and write that number alone.

// sample CNc1oc(-c2cc(Cl)cc(Cl)c2Cl)nc1C#N [Compound 1] , its pEC50 was 6.04

----------
# ASSAY DETAILS: Aqueous solubility of exemplified compounds (Example 3)
# Type: physicochemical
# CONDITION INFO: aqueous solubility
MEASUREMENT TYPE: Sol

Some compounds with recorded Sol:
INSERT INTO assay_data (sample_smiles, value_observed) VALUES
  ('N#Cc1nc(-c2cc(Cl)cc(Cl)c2Cl)oc1NCC#CCOCc1ccccc1', '+ (“+” < 10 μM)'),
  ('COC/C=C/CNc1oc(-c2cc(Cl)cc(Cl)c2Cl)nc1C#N', '+ (“+” < 10 μM)'),
  ('N#Cc1nc(-c2cc(Cl)cc(Cl)c2Cl)oc1NCCCO', '+++ (“+++” 20-50 μM)'),
  ('N#Cc1nc(-c2cc(Cl)cc(Cl)c2Cl)oc1NCCCCCO', '+ (“+” < 10 μM)'),
  ('COCCOCCCCNc1oc(-c2cc(Cl)cc(Cl)c2Cl)nc1C#N', '+ (“+” < 10 μM)'),
  ('CNc1oc(-c2cc(Cl)cc(Cl)c2Cl)nc1C#N', '+ (“+” < 10 μM)'),
  ('COCC/C=C/CNc1oc(-c2cc(Cl)cc(Cl)c2Cl)nc1C#N', '+ (“+” < 10 μM)');

Then there is this compound:
Kindly note the recorded Sol for N#Cc1nc(-c2cc(Cl)cc(Cl)c2Cl)oc1NCCOCCO , which is +++ (“+++” 20-50 μM)
